# experimental target: P2Y6 (Homo sapiens)
# test details: Intracellular Ca2+ measurement in HEK293 cells transfected with P2RY6
# Format: cell-based
# Set-up: expressed in transfected cells; host or cells: HEK293
# particulars: HEK293 stably transfected with P2RY6, Fig. 5; read-out: EC50, Ca2+ mobilization assay
experimental endpoint: pEC50
Just the number, please; pEC50 means minus log10 of the concentration in mol/L.

Consider O=c1ccn([C@@H]2O[C@H](COP(=O)(O)OP(=O)(O)O)[C@@H](O)[C@H]2O)c(=O)[nH]1 . Its measured pEC50 is 7.24

---

# experimental target: P2Y6 (Homo sapiens, UniProt Q15077)
# Sequence (Q15077 whole entry): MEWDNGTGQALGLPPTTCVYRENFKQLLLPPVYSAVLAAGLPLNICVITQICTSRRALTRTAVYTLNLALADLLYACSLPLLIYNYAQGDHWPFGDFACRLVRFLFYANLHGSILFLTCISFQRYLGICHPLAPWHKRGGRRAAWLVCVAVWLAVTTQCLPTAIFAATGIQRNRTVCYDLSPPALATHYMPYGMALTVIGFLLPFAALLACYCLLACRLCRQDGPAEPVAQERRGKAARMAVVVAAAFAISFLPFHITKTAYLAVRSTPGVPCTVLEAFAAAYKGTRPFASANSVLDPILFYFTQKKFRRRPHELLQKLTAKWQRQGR
# test details: Intracellular Ca2+ measurement in HEK293 cells transfected with P2RY6
# Assay type: cell-based
# Set-up: expressed in transfected cells; host or cells: HEK293
# particulars: HEK293 transiently transfected with P2RY6, Fig. 2b; read-out: EC50, intracellular Ca2+
experimental endpoint: EC50 (nM)
Report the figure in nM without appending any unit label.

Consider O=c1ccn([C@@H]2O[C@H](COP(=O)(O)OP(=O)(O)O)[C@@H](O)[C@H]2O)c(=O)[nH]1 [UDP] . Its measured EC50 is 78.3

---

# experimental target: P2Y6 (Homo sapiens)
# test details: cAMP-inhibition assay in P2RY6-transfected HEK293 cells
# Assay type: cell-based
# Parameters: expressed in transfected cells; host or cells: HEK293
# particulars: P2RY6-transfected HEK293, 2.5 µM forskolin, Fig. 3c; read-out: EC50, suppression of cAMP formation
experimental endpoint: pEC50
Just the number, please; pEC50 means minus log10 of the concentration in mol/L.

Consider O=c1ccn([C@@H]2O[C@H](COP(=O)(O)OP(=O)(O)O)[C@@H](O)[C@H]2O)c(=O)[nH]1 [UDP] . Its measured pEC50 is 8.44
